target: K-Ras G12D (Homo sapiens, UniProt P01116, G12D); construct: expressed in transfected cells; host or cells: 293H cells; experiment: G-LISA Ras activation, 293H cells transfected with G12D mutant; type: cell-based; details: compound 1 hour
Sequence (P01116 whole entry G12D): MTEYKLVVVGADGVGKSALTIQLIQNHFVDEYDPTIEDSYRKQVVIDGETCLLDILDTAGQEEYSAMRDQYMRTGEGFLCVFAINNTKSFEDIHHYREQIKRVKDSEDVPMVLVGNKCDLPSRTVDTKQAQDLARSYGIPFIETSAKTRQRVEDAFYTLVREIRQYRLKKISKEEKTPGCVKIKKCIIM
observable: IC50 (µM)
Kindly answer with a numeric value in µM, unit omitted.

>>> value_reported("Cn1nc(C(F)F)cc1C(=O)Nc1nc(-c2ccc3c(c2)CCC(=O)N3)cs1 [Compound 49]")
12.3

Could you now consider this next molecule?
query: Fill in: IC50 of Cc1nn(C)c(C)c1C(=O)Nc1nc(-c2ccc3c(c2)CCC(=O)N3Cc2cccnc2)cs1 [Compound 113] is ___
result: 6.3
